# credit: patent US20230233541A1

studySystem: full length human TREX1 (Homo sapiens, UniProt Q9NSU2)
Construct: N-terminally His-Tev tagged full length human TREX1; His-Tev (His tag with TEV protease site) (N)
Sequence (Q9NSU2 whole entry): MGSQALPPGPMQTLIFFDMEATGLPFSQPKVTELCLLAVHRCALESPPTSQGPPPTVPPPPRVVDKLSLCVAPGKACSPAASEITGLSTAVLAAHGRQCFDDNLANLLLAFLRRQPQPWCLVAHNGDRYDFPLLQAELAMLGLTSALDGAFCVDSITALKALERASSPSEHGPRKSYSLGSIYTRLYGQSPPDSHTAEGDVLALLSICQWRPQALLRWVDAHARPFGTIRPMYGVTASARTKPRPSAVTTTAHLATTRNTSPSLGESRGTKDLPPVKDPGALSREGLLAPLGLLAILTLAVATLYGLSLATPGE
protocol: TREX1 Biochemical Assay (fluorescence assay, degradation of dsDNA substrate)
conditionInfo: 150 pM TREX1, 60 nM dsDNA substrate, 25 minutes at room temperature; read-out: hTREX1 EC50
The following molecules are shown together with reported EC50 values.

// below: answered molecules
O=C(c1cc(F)cc(F)c1)N(Cc1cccnc1)[C@H](c1cn[nH]c1)c1ccc(Cl)cc1Cl = 0.1 to 1 µM
C[C@H](c1cccnc1)N(Cc1ccc(Cl)cc1Cl)C(=O)c1cccc(F)c1 (single isomer, unassigned) = > 10 µM
O=C(c1ccccc1N1CCCCC1)N(Cc1cccnc1)Cc1cc(Cl)cc(Cl)c1 = > 10 µM
O=C(c1ccc(Oc2ccccc2)cc1)N(Cc1cccnc1)Cc1ccc(Cl)cc1Cl = > 10 µM
NC(=O)c1ccc(CN(Cc2cccc(Cl)c2Cl)C(=O)c2cc(F)cc(F)c2)cn1 = 1 to 10 µM
O=C(c1ccc(Cl)c(Cl)c1)N(Cc1cccnc1)Cc1ccc(Cl)cc1Cl = > 10 µM
CC[C@@H](c1cccc(OC)c1C(F)(F)F)N(Cc1ccc(C(=O)O)nc1)C(=O)c1cc(F)cc(F)c1 = < 0.1 µM

What value of measured EC50 is listed for O=C(c1ccc(Oc2ccc(F)cc2)cc1)N(Cc1cccnc1)Cc1cc(Cl)cc(Cl)c1 ?
> 10 µM

----------
studySystem: human TREX2 (residues M44-A279) (Homo sapiens, UniProt Q9BQ50)
Construct: human TREX2 (residues M44-A279, expressed in E. coli); His-Tev (His tag with TEV protease site) (N)
Sequence (Q9BQ50 44-279 isoform Q9BQ50-1): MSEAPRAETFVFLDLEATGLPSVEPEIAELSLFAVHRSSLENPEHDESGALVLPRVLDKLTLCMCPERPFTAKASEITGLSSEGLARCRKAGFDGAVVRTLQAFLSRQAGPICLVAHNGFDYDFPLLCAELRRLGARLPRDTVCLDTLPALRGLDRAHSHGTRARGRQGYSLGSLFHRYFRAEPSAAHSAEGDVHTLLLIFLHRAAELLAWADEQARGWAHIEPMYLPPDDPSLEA
protocol: TREX2 Biochemical Assay (fluorescence assay, degradation of dsDNA substrate)
conditionInfo: 2.5 nM TREX2, 60 nM dsDNA substrate, 25 minutes at room temperature; read-out: hTREX2 EC50
pEC50: −log10 of the molar value.
valueType: pEC50

// below: answered molecules
Cn1ncc2ccc(CN(Cc3cccnc3)C(=O)c3cccc(F)c3)cc21 = < 4.00
CCOc1cccc([C@H](CC)N(Cc2ccc(C(=O)O)nc2)C(=O)c2cc(F)cc(F)c2)c1Cl = 5.00 to 6.00
O=C(O)c1ccc(CN(Cc2cc(Cl)ccc2Cl)C(=O)c2cc(F)cc(F)c2)cn1 = 5.00 to 6.00
CC[C@H](c1ccc(OC)c(OC)c1Cl)N(Cc1ccc(C(=O)O)nc1)C(=O)c1cc(F)cc(F)c1 = 5.00 to 6.00
O=C(c1ccccc1N1CCCCC1)N(Cc1cccnc1)Cc1cc(Cl)cc(Cl)c1 = < 4.00
CNc1cc(CN(Cc2cccc(Cl)c2Cl)C(=O)c2cc(F)cc(F)c2)cnc1C(=O)O = 4.00 to 5.00

What value of measured pEC50 is listed for CS(=O)(=O)NC(=O)c1ccc(CN(Cc2cccc(Cl)c2Cl)C(=O)c2cccc(F)c2)cn1 ?
< 4.00

What value of measured pEC50 is listed for O=C(c1cc(F)cc(F)c1)N(Cc1ccc(-c2ccn[nH]2)nc1)Cc1ccccc1Cl ?
4.00 to 5.00

----------
The following compounds are shown together with reported pEC50 values.
studySystem: full length human TREX1 (Homo sapiens)
Construct: N-terminally His-Tev tagged full length human TREX1; His-Tev (His tag with TEV protease site) (N)
protocol: TREX1 Biochemical Assay (fluorescence assay, degradation of dsDNA substrate)
conditionInfo: 150 pM TREX1, 60 nM dsDNA substrate, 25 minutes at room temperature; read-out: hTREX1 EC50
pEC50: −log10 of the molar value.

// below: answered compounds
CC(C)c1ccc(C(=O)N(Cc2cccnc2)Cc2ccc(Cl)cc2Cl)cc1 [Compound 85] = < 5.00
Cn1ncc2cc(CN(Cc3cccnc3)C(=O)c3cccc(F)c3)ccc21 [Compound 126] = < 5.00
O=C(c1cccc(F)c1F)N(Cc1cccnc1)Cc1ccc(Cl)cc1Cl [Compound 124] = 5.00 to 6.00
O=C(O)c1ccc(CN(Cc2ccccc2OC(F)(F)F)C(=O)c2cc(F)cc(F)c2)cn1 [Compound 199] = 5.00 to 6.00
O=C(c1ccc(CO)cc1F)N(Cc1cccnc1)Cc1cc(Cl)cc(Cl)c1 [Compound 60] = < 5.00
COc1cc(C(=O)N(Cc2cccnc2)Cc2ccc(Cl)cc2Cl)cc(Br)c1O [Compound 41] = < 5.00

What value of measured pEC50 is listed for CN(C)c1cc(CN(Cc2cccc(Cl)c2Cl)C(=O)c2cc(F)cc(F)c2)cnc1C(=O)O [Compound 243] ?
5.00 to 6.00

What value of measured pEC50 is listed for O=C(c1cccc(F)c1)N(Cc1cccnc1)Cc1ccccc1Cl [Compound 139] ?
5.00 to 6.00

What value of measured pEC50 is listed for O=C(c1ccc(F)cn1)N(Cc1cccnc1)Cc1ccc(Cl)cc1Cl [Compound 99] ?
< 5.00

What value of measured pEC50 is listed for COc1cccc([C@@H](C)N(Cc2ccc(-c3ccn[nH]3)nc2)C(=O)c2cc(F)cc(F)c2)c1Cl [Compound 225] ?
6.00 to 7.00

----------
studySystem: human TREX2 (residues M44-A279) (Homo sapiens, UniProt Q9BQ50)
Construct: human TREX2 (residues M44-A279, expressed in E. coli); His-Tev (His tag with TEV protease site) (N)
protocol: TREX2 Biochemical Assay (fluorescence assay, degradation of dsDNA substrate)
conditionInfo: 2.5 nM TREX2, 60 nM dsDNA substrate, 25 minutes at room temperature; read-out: hTREX2 EC50
Experimental: Degradation of the dsDNA liberates free fluorophore to produce a fluorescent signal. […] After a 5-minute incubation at room temperature, plates were read in a laser sourced Envision (Perkin-Elmer), measuring fluorescence at 615 nm following excitation w/570 nm light. […]
The following compounds are shown together with reported EC50 values.

// below: answered compounds
N#CC[C@H](c1cccc(Cl)c1Cl)N(Cc1cccnc1)C(=O)c1cc(F)cc(F)c1 = 1 to 10 µM
O=C(c1ccccc1F)N(Cc1cccnc1)Cc1cc(Cl)cc(Cl)c1 = > 100 µM

Form entry - test system: human TREX2 (residues M44-A279) (Homo sapiens, UniProt Q9BQ50); read-out: EC50; compound: O=C(c1ccc(Cl)cc1O)N(Cc1cccnc1)Cc1cc(Cl)cc(Cl)c1
> 100 µM

Form entry - test system: human TREX2 (residues M44-A279) (Homo sapiens, UniProt Q9BQ50); read-out: EC50; compound: O=C(O)c1ccc(CN(Cc2cccc(Cl)c2Cl)C(=O)c2cccc(F)c2)cn1
1 to 10 µM

Form entry - test system: human TREX2 (residues M44-A279) (Homo sapiens, UniProt Q9BQ50); read-out: EC50; compound: O=C(C1CCC(O)CC1)N(Cc1cccnc1)Cc1ccc(Cl)cc1Cl (stereo not shown)
> 100 µM

Form entry - test system: human TREX2 (residues M44-A279) (Homo sapiens, UniProt Q9BQ50); read-out: EC50; compound: Cc1nocc1C(=O)N(Cc1cccnc1)Cc1ccc(Cl)cc1Cl
> 100 µM

Form entry - test system: human TREX2 (residues M44-A279) (Homo sapiens, UniProt Q9BQ50); read-out: EC50; compound: COc1cc(C(=O)N(Cc2cccnc2)Cc2ccc(Cl)cc2Cl)cc(Br)c1O
> 100 µM

Form entry - test system: human TREX2 (residues M44-A279) (Homo sapiens, UniProt Q9BQ50); read-out: EC50; compound: O=C(c1ccc(O)c(Br)c1)N(Cc1cccnc1)Cc1cc(Cl)cc(Cl)c1
> 100 µM

Form entry - test system: human TREX2 (residues M44-A279) (Homo sapiens, UniProt Q9BQ50); read-out: EC50; compound: COC(=O)C[C@H](c1ccc(Cl)cc1Cl)N(Cc1cccnc1)C(=O)c1cc(F)cc(F)c1
10 to 100 µM

Form entry - test system: human TREX2 (residues M44-A279) (Homo sapiens, UniProt Q9BQ50); read-out: EC50; compound: O=C(c1ccc(CO)cc1F)N(Cc1cccnc1)Cc1ccc(Cl)cc1Cl
> 100 µM

Form entry - test system: human TREX2 (residues M44-A279) (Homo sapiens, UniProt Q9BQ50); read-out: EC50; compound: O=C(c1cccc(Oc2ccccc2)c1)N(Cc1cccnc1)Cc1cc(Cl)cc(Cl)c1
> 100 µM

Form entry - test system: human TREX2 (residues M44-A279) (Homo sapiens, UniProt Q9BQ50); read-out: EC50; compound: O=C(O)c1ccc(CN(Cc2c(Cl)cccc2Cl)C(=O)c2cc(F)cc(F)c2)cn1
1 to 10 µM

Form entry - test system: human TREX2 (residues M44-A279) (Homo sapiens, UniProt Q9BQ50); read-out: EC50; compound: O=C(O)c1ccc(CN(Cc2ccc(Cl)cc2Cl)C(=O)c2cc(F)cc(F)c2)cc1
10 to 100 µM

Form entry - test system: human TREX2 (residues M44-A279) (Homo sapiens, UniProt Q9BQ50); read-out: EC50; compound: O=C(c1ccc(Cl)c(Cl)c1)N(Cc1cccnc1)Cc1cc(Cl)cc(Cl)c1
> 100 µM

Form entry - test system: human TREX2 (residues M44-A279) (Homo sapiens, UniProt Q9BQ50); read-out: EC50; compound: Cn1cc(CN(Cc2ccc(C(=O)O)nc2)C(=O)c2cc(F)cc(F)c2)c(C(F)(F)F)n1
10 to 100 µM
